concentration at 0.25 h reference
- method_description: Dog pharmacokinetics after oral administration of compound of example No. 1
- Type: in vivo, Beagle dogs
- experimental_parameters: dog, blood, po; male Beagle dogs, example 1 3.0 mg/kg p.o., 0.25 h

| chemical_smiles | unit_info | concentration at 0.25 h |
| --- | --- | --- |
| Cc1cccc2c(C3=C(c4nc(N5CCNC6(CC6)C5)cc5ccccc45)C(=O)N(CO)C3=O)c[nH]c12 | nM | 39.6 |
| Cc1cccc2c(C3=C(c4nc(N5CCNC6(CC6)C5)cc5ccccc45)C(=O)NC3=O)c[nH]c12 | nM | 167 |
| Cc1cccc2c(C3=C(c4nc(N5CCNC6(CC6)C5)cc5ccccc45)C(=O)N(COP(=O)(O)O)C3=O)c[nH]c12 | nM | 3.1 |

====

- measurement_target: PKC-alpha (Homo sapiens, UniProt P17252)
- Construct: Both enzymes were full length human recombinant protein expressed in insect cells; purchased Invitrogen AG, Basel, Switzerland; host or cells: insect cells
- method_description: Protein kinase C alpha assay (Caliper mobility shift)
- Format: biochemical
- experimental_parameters: full length human recombinant enzyme, 17 μM ATP; read-out: PKCα (IC50 in nM)

| chemical_smiles | IC50 |
| --- | --- |
| Cc1cccc2c(C3=C(c4nc(N5CCNC6(CC6)C5)cc5ccccc45)C(=O)NC3=O)c[nH]c12 | 0.4 nM |
| Cc1cccc2c(C3=C(c4nc(N5CCNC6(CC6)C5)cc5ccccc45)C(=O)N(COP(=O)(O)O)C3=O)c[nH]c12 | 1680 nM |

====

- method_description: Dog pharmacokinetics after oral administration of compound of example No. 3 (mono acetate salt)
- Type: in vivo, Beagle dogs
- experimental_parameters: blood, po; fasted male Beagle dogs, example No. 3 mono acetate salt p.o. 100 mg/dog, 32 h

| molecule | concentration at 32 h, nM |
| --- | --- |
| Cc1cccc2c(C3=C(c4nc(N5CCNC6(CC6)C5)cc5ccccc45)C(=O)NC3=O)c[nH]c12 [Example 3] | 116 |

====

- method_description: Dog pharmacokinetics after oral administration of compound of example No. 3 (mono acetate salt)
- Type: in vivo, Beagle dogs
- experimental_parameters: blood, po; fasted male Beagle dogs, example No. 3 mono acetate salt, capsule p.o. 100 mg/dog, 0.25 h
parameter: concentration at 0.25 h (nM)

| molecule | parameter | measured |
| --- | --- | --- |
| Cc1cccc2c(C3=C(c4nc(N5CCNC6(CC6)C5)cc5ccccc45)C(=O)NC3=O)c[nH]c12 [Example 3] | concentration at 0.25 h | 177 |

====

Tmax overview
- method_description: Dog pharmacokinetics after oral administration of compound of example No. 1
- Type: in vivo, Beagle dogs
- experimental_parameters: male, Beagle, dog, blood, 3 mg/kg; mean ± SD (n=3), after oral dosing of example No. 1 to dogs
parameter: Tmax (min)

| chemical_smiles | unit_info | measured |
| --- | --- | --- |
| Cc1cccc2c(C3=C(c4nc(N5CCNC6(CC6)C5)cc5ccccc45)C(=O)N(CO)C3=O)c[nH]c12 | min | 24 |
| Cc1cccc2c(C3=C(c4nc(N5CCNC6(CC6)C5)cc5ccccc45)C(=O)NC3=O)c[nH]c12 | min | 54 |

====

- method_description: Dog pharmacokinetics after oral administration of compound of example No. 1
- Format: in vivo, Beagle dogs
- experimental_parameters: dog, blood, po; male Beagle dogs, example 1 3.0 mg/kg p.o., 7 h

| chemical_smiles | concentration at 7 h |
| --- | --- |
| Cc1cccc2c(C3=C(c4nc(N5CCNC6(CC6)C5)cc5ccccc45)C(=O)NC3=O)c[nH]c12 | 403 nM |

====

- method_description: Dog pharmacokinetics after oral administration of compound of example No. 1
- Type: in vivo, Beagle dogs
- experimental_parameters: dog, blood, po; male Beagle dogs, example 1 3.0 mg/kg p.o., 3 h
Attribute: concentration at 3 h
parameter: concentration at 3 h

| chemical_smiles | parameter | measured |
| --- | --- | --- |
| Cc1cccc2c(C3=C(c4nc(N5CCNC6(CC6)C5)cc5ccccc45)C(=O)N(CO)C3=O)c[nH]c12 | concentration at 3 h | 1 nM |
| Cc1cccc2c(C3=C(c4nc(N5CCNC6(CC6)C5)cc5ccccc45)C(=O)NC3=O)c[nH]c12 | concentration at 3 h | 959 nM |
